Catalogue of IC50 values
Biological target: Corticotropin-releasing factor receptor 1 (Homo sapiens, UniProt P34998)
Sequence (P34998 whole entry): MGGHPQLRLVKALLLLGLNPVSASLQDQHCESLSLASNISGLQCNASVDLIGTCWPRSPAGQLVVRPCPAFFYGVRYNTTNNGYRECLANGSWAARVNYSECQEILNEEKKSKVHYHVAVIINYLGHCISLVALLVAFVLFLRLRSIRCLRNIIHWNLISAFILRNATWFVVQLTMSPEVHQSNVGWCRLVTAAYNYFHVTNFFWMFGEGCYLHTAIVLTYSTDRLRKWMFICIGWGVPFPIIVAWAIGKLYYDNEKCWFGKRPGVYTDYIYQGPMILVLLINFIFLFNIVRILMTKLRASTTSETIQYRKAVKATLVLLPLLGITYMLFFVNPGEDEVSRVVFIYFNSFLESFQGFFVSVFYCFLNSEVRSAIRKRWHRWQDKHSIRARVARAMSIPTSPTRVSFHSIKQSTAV
Test: Displacement of [125I]sauvagine from human recombinant CRF1 receptor expressed in CHO cells by SPA

Sample records with IC50:
-- ask // query IC50 value for entry COc1ccc2c(c1)CCN2c1cc(-n2ccc(-c3nccs3)n2)cc(C)n1
-- reply > 10 µM

-- ask // query IC50 value for entry Cc1cc(-n2ccc(-c3nccs3)n2)c2c(n1)N(c1ccc(F)cc1[N+](=O)[O-])CC2
-- reply > 10 µM

-- ask // query IC50 value for entry Cc1cc(-n2ccc(-c3ccccn3)n2)c2c(n1)N(c1ccc(C#N)cc1Cl)CC2
-- reply 0.363 µM

-- ask // query IC50 value for entry Cc1cc(-n2ccc(-c3nccs3)n2)c2c(n1)N(c1ccc(C(F)(F)F)cc1C(F)(F)F)S(=O)(=O)C2
-- reply > 10 µM

***
-- ask // query IC50 value for entry COc1ccc(N2CCc3c(-n4ccc(-c5nccs5)n4)cc(C)nc32)c([N+](=O)[O-])c1
-- reply > 10 µM
